Reported chemical recovery by SPE of plasma values are given for each entry in this list.
- experiment_summary: chemical recovery by SPE of plasma after PDMS sampling; higher = better extraction;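 also: over 400 spiked chemicals quantified by LC-HRMS or GC-HRMS via internal standard calibration, recovery relative to spike mix added to unspiked plasma extract to correct matrix effects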
- recorded_conditions: pooled human plasma; extraction method: HLB SPE of plasma after PES; equilibration time (d): 6
Could you give me the number in %? Just the number is fine.

Worked cases, answers included:
# molecule, metric_name, quantitative_result
data = [
    ("Clc1ccc(Cl)c(-c2cc(Cl)c(Cl)cc2Cl)c1", "chemical recovery by SPE of plasma", 1.45),
    ("O=C1Nc2ccc(Cl)cc2C(c2ccccc2Cl)=NC1O (stereo not given)", "chemical recovery by SPE of plasma", 31.1),
    ("CCCC1COC(Cn2cncn2)(c2ccc(Cl)cc2Cl)O1 (stereo not given)", "chemical recovery by SPE of plasma", 0.117),
]

Challenge: Need chemical recovery by SPE of plasma of "CCCCCCCCCCCCCCN(C)C" , thanks.
Response given: 0.0207

Challenge: // same read-out, input: CCOC1Oc2ccc(OS(C)(=O)=O)cc2C1(C)C (stereo not given) [Ethofumesate]
Response given: 0.896

Challenge: // same read-out, input: CCCCCCCCCCCCCC[N+](C)(C)[O-] [N,N-Dimethyltetradecylamine-N-oxide]
Response given: 8.54

Challenge: // same read-out, input: "C[C@]12C=CC(=O)C=C1CC[C@@H]1[C@@H]2[C@@H](O)C[C@@]2(C)[C@H]1CC[C@]2(O)C(=O)CO"
Response given: 44.5

Challenge: // same read-out, input: "CCCCCOC(=O)Nc1nc(=O)n([C@@H]2O[C@H](C)[C@@H](O)[C@H]2O)cc1F"
Response given: 44.2

Challenge: // same read-out, input: N#Cc1nn(-c2c(Cl)cc(C(F)(F)F)cc2Cl)c(N)c1SC(F)(F)F [Fipronil sulfide]
Response given: 15.3

Challenge: // same read-out, input: CC1CN(C2CCCCCCCCCCC2)CC(C)O1 (stereo not given)
Response given: 0.044

Challenge: // same read-out, input: "CO/C=C(/C(=O)OC)c1ccccc1Oc1cc(Oc2ccccc2C#N)ncn1"
Response given: 2.15

Challenge: // same read-out, input: "Cc1ccc(S(=O)(=O)O)c(C)c1"
Response given: 38.3

Challenge: // same read-out, input: "Clc1cc(Cl)c(-c2ccc(Cl)c(Cl)c2Cl)cc1Cl"
Response given: 1.33

Challenge: // same read-out, input: O=C1Nc2ccc(Cl)cc2C(c2ccccc2)=NC1O (stereo not given)
Response given: 27.7

Challenge: // same read-out, input: "CN1C(=O)CC[C@H]1c1cccnc1"
Response given: 4.13
